Sourced from patent US20260098283A1

System: fatty acid-CoA ligase QKS26753
Assay: substrate chain length preference of fatty acid-CoA ligase QKS26753
Type: biochemical, Halomonas titanicae
Conditions: substrate chain length preference distribution, percent activity vs. carbon length; enzyme QKS26753
Excerpt: • Sources: Enzyme sequences were identified by searching the NCBI Protein or Identical Protein Group databases. For this example, it was decided to focus primarily on the thermohalophile Thermobifida halotolerans. Sequences and accession numbers for the enzymes used in this work are listed in Appendix I. All general laboratory chemicals and long chain fatty acids were purchased from Millipore-Sigma Chemical Company (St. Louis, MO). […]
Known percent activity of a selection of molecules
Your answer should be a plain number; it is taken to be in %.

See these solved cases before continuing.
compoundString	observedResult
CCCCCCCCCCCCCCCCCCCCCC(=O)O	0.0
CCCCCCCCCCCCCCCC(=O)O	100
CCCCCCCCCC(=O)O	0.0
CCCCCCCCCCCCCC(=O)O	100
CCCCCCCCCCCCCCCCCCCC(=O)O	5.6

Reported percent activity for CCCCCCCC(=O)O was 0.0
